Read-out: Paternally Expressed 10 (PEG10), PEG10 (gene 23089)
Assay: LTEA_HepaRG_PEG10: Life Technologies and Expression Analysis (LTEA) Assay for Paternally Expressed 10 (PEG10) using HepaRG (AID 2283520)
Conditions: mRNA level, 48 h; actives raise or lower the signal
Active and inactive are the calls of the source. Rule for the calls: active = hit-call score of the fitted dose curve at least 0.9, where 1 is the maximum; inactive = score below 0.9.
# output must be one of Y = active, N = inactive

Solved cases (5 shown):
# smiles data, assigned label
records = [
    ("c1ccc2cc3ccccc3cc2c1", "N"),
    ("Cc1nccn1-c1ccc(Sc2cccc(C3(C(N)=O)CCOCC3)c2)cc1", "Y"),
    ("NC(=O)NN=Cc1ccc([N+](=O)[O-])o1", "N"),
    ("COCc1nnc(-c2ccc[n+]([O-])c2)n1-c1c(Cl)c(Cl)cc2[nH]c(=O)c(=O)[nH]c12", "N"),
    ("CC[C@H](C)C(=O)O[C@H]1C[C@H](O)C=C2C=C[C@H](C)[C@H](CC[C@@H](O)C[C@@H](O)CC(=O)O)[C@H]21", "N"),
]

Below: the item to evaluate.
I would be grateful if you could indicate the recorded call for OCCOCCOCCO .
N

====

Molecular target: Glucocorticoid receptor (Homo sapiens)
Test: ATG_GR_TRANS: Attagene TRANS-FACTORIAL HepG2 Assay for human Glucocorticoid Receptor (GR) (AID 2282978);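 note: activators score as hits since higher reporter transcript over DMSO is fitted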
Conditions: HepG2 Attagene TRANS GR reporter, mRNA transcription
Results filed as inconclusive are left out. The source made the active and inactive calls. Rule for the calls: active = hit-call score of the fitted dose curve at least 0.9, where 1 is the maximum; inconclusive = response in the unintended direction; inactive = score below 0.9.
Pick one: active, inactive

Worked cases, answers included:
# compound, assigned label
data = [
    ("C[C@]12C=CC(=O)C=C1CC[C@H]1[C@@H]3C[C@@H](O)[C@](O)(C(=O)CO)[C@@]3(C)C[C@H](O)[C@@]12F", "active"),
    ("OC(CCl)CCl", "inactive"),
    ("CCCCCCCCN(C)C", "inactive"),
    ("CC(C)c1nnc2ccc(-c3ocnc3-c3cc(F)ccc3F)cn12", "inactive"),
]

Now turn to the next compound.
For this compound, state the assay outcome: O=C(O)c1cccc(C[C@@H]2COc3ccc(OCc4nc5cc(F)ccc5s4)cc3[C@@H]2O)c1
inactive

====

Read-out: ATP-citrate lyase (ACLY), ACLY (gene 47)
Assay: LTEA_HepaRG_ACLY: Life Technologies and Expression Analysis (LTEA) Assay for ATP-citrate lyase (ACLY) using HepaRG (AID 2283466)
Settings: mRNA level, 48 h; actives raise or lower the signal
Procedure: LTEA_HepaRG is a cell based, multiplexed-readout assay that uses HepaRG, a human liver cell line, with measurements taken at 48 hours after chemical dosing on a 96-well plate.LTEA_HepaRG_ACLY is one of 102 assay component(s) measured in the LTEA HepaRG cell culture assay. It is a marker of Steatosis.Data from the assay component LTEA_HepaRG_ACLY was analyzed into 1 endpoint. […]
The source made the active and inactive calls. The calls were made as follows: active = hit-call score of the fitted dose curve at least 0.9, where 1 is the maximum; inactive = score below 0.9.
API: response.call in active, inactive

Example entries and their recorded answers appear below.
# compound, assigned label
records = [
    ("CCn1nc(C)c2c1C(=O)NCC(c1ccc(O)cc1)=N2", "inactive"),
    ("CC[C@H](C)C(=O)O[C@H]1C[C@H](O)C=C2C=C[C@H](C)[C@H](CC[C@@H](O)C[C@@H](O)CC(=O)O)[C@H]21", "active"),
    ("COCc1nnc(-c2ccc[n+]([O-])c2)n1-c1c(Cl)c(Cl)cc2[nH]c(=O)c(=O)[nH]c12", "inactive"),
]

Called result for O=C(O)c1cccc(C[C@@H]2COc3ccc(OCc4nc5cc(F)ccc5s4)cc3[C@@H]2O)c1
inactive

Status in this test for CCCCCCCC/C=C\CCCCCCCC(=O)OC[C@@H](O)[C@H]1OC[C@H](O)[C@H]1O ?
inactive

Given C[C@]12C=CC(=O)C=C1CC[C@H]1[C@@H]3C[C@@H](O)[C@](O)(C(=O)CO)[C@@]3(C)C[C@H](O)[C@@]12F , state the outcome it received in this test.
inactive

I'd appreciate the recorded outcome for OCCNCCO from this test.
inactive

Lab log entry: COc1cc(C(C)C)c2c(c1)S(=O)(=O)N(COc1cc(=O)n3cccc(OCCN4CCCCC4)c3n1)C2=O — outcome as called in the assay?
inactive
